Tested on: TZ05 DNA polymerase (Thermus species Z05)
Test: FP filter
Settings: 55C; IT50 52C
READOUT LABEL: Kd (pM)
Report the figure in pM without appending any unit label.

Check out these entries, answers already filled in.
INPUT: Any idea what its Kd is? The sequence is TTCTCGGTTGGTCTCTGGCGGAGCGGATCAGACACGAGACATTGCGGACTTTTGTCTTGTGTATGATTCGCTTTTCCC [TZ9]
OUTPUT: 5

INPUT: Any idea what its Kd is? The sequence is TTCTCGGTTGGTCTCTGGCGGAGCGAAGCATACGAAGACATTCCAACGTTTTGTCTTGTGTATGATTCGCTTTTCCC [TZ54]
OUTPUT: 23

Next:
INPUT: Any idea what its Kd is? The sequence is TTCTCGGTTGGTCTCTGGCGGAGCGAAGCATACGAAGACATTCCAACGTTTTGTCTTGTGTATGATTCGCTTTTCCC [TZ8]
OUTPUT: 5

* * *

Tested on: TZ05 DNA polymerase (Thermus species Z05)
Assay: FP filter
Conditions: 55C; IT50 46C
READOUT LABEL: Kd (pM)
Report the figure in pM without appending any unit label.

INPUT: Any idea what its Kd is? The sequence is TTCTCGGTTGGTCTCTGGCGGAGCGAACATACGAAGACATTCCAACGTTTTGTCTTGTGTATGATTCGCTTTTCCC [TZ69]
OUTPUT: 20

* * *

System: TZ05 DNA polymerase (Thermus species Z05)
Test: FP filter
Settings: 55C; IT50 52.5C
READOUT LABEL: pKd
Scale: pKd equals -log10([C]), with [C] in mol/L.

INPUT: Any idea what its pKd is? The sequence is TTCTCGGTTGGTCTCTGGCGGAGCACACCGGGGGGGCTGCGGGCAAGGCGGGTGTCTTGTGTATGATTCGCTTTTCCC [TZ1]
OUTPUT: 10.80

* * *

Molecular target: Tth DNA polymerase (Thermus thermophilus) (UniProt P52028)
Sequence (P52028 whole entry): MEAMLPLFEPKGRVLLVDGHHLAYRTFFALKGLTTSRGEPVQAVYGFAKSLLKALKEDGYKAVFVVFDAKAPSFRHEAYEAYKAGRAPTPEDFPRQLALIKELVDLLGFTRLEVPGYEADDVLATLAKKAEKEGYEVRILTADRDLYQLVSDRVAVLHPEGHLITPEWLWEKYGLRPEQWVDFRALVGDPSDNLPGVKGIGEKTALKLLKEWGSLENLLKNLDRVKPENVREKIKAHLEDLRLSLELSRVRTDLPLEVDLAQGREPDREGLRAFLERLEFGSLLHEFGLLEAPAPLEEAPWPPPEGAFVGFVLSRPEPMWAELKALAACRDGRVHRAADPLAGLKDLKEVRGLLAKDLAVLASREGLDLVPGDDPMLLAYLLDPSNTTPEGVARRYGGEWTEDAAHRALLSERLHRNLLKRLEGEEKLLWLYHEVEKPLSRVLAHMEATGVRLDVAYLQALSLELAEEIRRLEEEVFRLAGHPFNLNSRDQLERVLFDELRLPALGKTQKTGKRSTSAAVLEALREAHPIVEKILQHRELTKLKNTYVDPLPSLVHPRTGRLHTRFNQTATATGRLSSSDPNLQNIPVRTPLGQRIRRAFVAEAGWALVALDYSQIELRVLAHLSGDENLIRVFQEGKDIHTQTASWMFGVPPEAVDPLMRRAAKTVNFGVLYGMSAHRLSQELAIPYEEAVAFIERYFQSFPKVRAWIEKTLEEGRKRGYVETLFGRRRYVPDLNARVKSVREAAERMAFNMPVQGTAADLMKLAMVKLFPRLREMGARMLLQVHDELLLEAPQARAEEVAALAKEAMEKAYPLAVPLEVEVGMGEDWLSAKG
Test: FP filter
Details: cross binding, room temp
READOUT LABEL: Kd (pM)
Report the figure in pM without appending any unit label.

INPUT: For the record TTCTCGGTTGGTCTCTGGCGGAGCNNNNNNNNNNNNNNNNNNNNNNNNNNNNNNTCTTGTGTATGATTCGCTTTTCCC [enriched Taq pool round 12] , what value of Kd is listed for Tth DNA polymerase (Thermus thermophilus) (UniProt P52028)?
OUTPUT: 200

* * *

Tested on: TZ05 DNA polymerase (Thermus species Z05)
Assay: FP filter
Settings: printed as >>1000; 55C; IT50 <<35C
READOUT LABEL: Kd

INPUT: Any idea what its Kd is? The sequence is TTCTCGGTTGGTCTCTGGCGGAGCGCGAGGGTGTGGCGTGGGTGGCGCGATCTTGTGTATGATTCGCTTTTCCC [TZ2]
OUTPUT: > 1 nM
